target: Coagulation factor X (Bos taurus); assay: Inhibition of bovine F10a at 250 uM
Sequence (P00743 41-180 limits assumed): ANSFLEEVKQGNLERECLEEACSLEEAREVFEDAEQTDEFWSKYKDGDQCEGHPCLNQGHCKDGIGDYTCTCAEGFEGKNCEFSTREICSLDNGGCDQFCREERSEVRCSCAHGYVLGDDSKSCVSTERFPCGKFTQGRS
Sequence (P00743 234-492 limits assumed): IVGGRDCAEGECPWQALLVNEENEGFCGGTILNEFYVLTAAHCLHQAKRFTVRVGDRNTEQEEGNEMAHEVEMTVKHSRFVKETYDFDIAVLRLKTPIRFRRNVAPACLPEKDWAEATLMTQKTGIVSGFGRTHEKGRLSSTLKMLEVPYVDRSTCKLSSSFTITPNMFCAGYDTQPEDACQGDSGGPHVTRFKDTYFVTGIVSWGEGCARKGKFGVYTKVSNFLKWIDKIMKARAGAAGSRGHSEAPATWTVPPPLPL
Readout: pIC50
Remember, pIC50 is on a log scale: it is -log10 of the molar concentration.

Incoming: Notebook entry, Coagulation factor X (Bos taurus) assay: pIC50 of C[C@H](NC(=O)[C@@H](CO)NC(=O)c1cccs1)C(=O)NC(Cc1ccc(N=C(N)N)cc1)P(=O)(Oc1ccccc1)Oc1ccccc1 (stereo partly specified) = ?
Outgoing: 3.60

---

molecular target: Urokinase-type plasminogen activator (Homo sapiens, UniProt P00749); assay: Inhibition of human uPA
Readout: pIC50
Quick note: pIC50 values are minus log10 of concentrations in mol/L.

See these solved cases before continuing.
Cc1ccc(C(=O)N[C@H](CO)C(=O)N[C@@H](C)C(=O)NC(Cc2ccc(NC(=N)N)cc2)P(=O)(Oc2ccccc2)Oc2ccccc2)cc1 (stereo not given in full); 8.15
C[C@H](NC(=O)[C@@H](CO)NC(=O)c1cccs1)C(=O)NC(Cc1ccc(N=C(N)N)cc1)P(=O)(Oc1ccccc1)Oc1ccccc1 (stereo not given in full); 8.16

Incoming: Return pIC50 measured with Urokinase-type plasminogen activator (Homo sapiens, UniProt P00749) given this compound: C[C@H](NC(=O)[C@@H](CO)NC(=O)OCc1ccccc1)C(=O)NC(Cc1ccc(N=C(N)N)cc1)P(=O)(Oc1ccccc1)Oc1ccccc1 (stereo not given in full)
Outgoing: 8.37

Incoming: Tell me reported pIC50 for C[C@H](NC(=O)[C@@H](CO)NS(=O)(=O)c1cccc2ccccc12)C(=O)NC(Cc1ccc(N=C(N)N)cc1)P(=O)(Oc1ccccc1)Oc1ccccc1 (stereo not given in full) , tested with Urokinase-type plasminogen activator (Homo sapiens, UniProt P00749).
Outgoing: 8.24
